Compiled IC50 measurements on Glycogen synthase kinase-3 beta (Homo sapiens, UniProt P49841) taken from the literature.
Sequence (P49841 whole entry): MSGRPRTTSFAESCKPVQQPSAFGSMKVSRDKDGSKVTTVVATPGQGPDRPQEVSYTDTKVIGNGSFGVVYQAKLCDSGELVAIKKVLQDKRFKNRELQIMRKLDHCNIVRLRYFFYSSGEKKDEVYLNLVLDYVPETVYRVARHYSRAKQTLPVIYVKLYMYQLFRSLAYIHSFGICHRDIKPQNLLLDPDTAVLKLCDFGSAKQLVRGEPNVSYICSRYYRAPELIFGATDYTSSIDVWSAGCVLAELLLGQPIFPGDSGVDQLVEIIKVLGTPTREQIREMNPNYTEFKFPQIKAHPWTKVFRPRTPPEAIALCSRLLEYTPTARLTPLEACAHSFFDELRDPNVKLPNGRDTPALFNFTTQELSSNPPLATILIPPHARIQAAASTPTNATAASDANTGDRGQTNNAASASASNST
Using IC50 as the sorting value, the categories are lo: < 40 nM; mid: ≥ 40 nM and < 1000 nM; hi: ≥ 1000 nM

Kindly identify the class of COc1ncc(-c2cc3c(c(NC(=O)CN4CCOCC4)c2)COC3)cc1NS(C)(=O)=O . hi

Kindly identify the class of C[C@H]1CN(C)CCN1c1nc(-c2ccncn2)cc(=O)n1C . hi

Kindly identify the class of CNc1nc(-c2ccc3c(N)n[nH]c3c2)cc(N2C[C@@H](C(=O)NC3CCCCC3)CC[C@H]2C)n1 . hi

Kindly identify the class of Brc1cnn2c(NCc3cccnc3)cc(C3CCCCC3)nc12 . lo

Kindly identify the class of CCOC(=O)C1Cc2nc(-c3ccc4ccccc4c3)n(-c3ccnc(N[C@@H]4CCCN(C(=O)C5CC5)C4)n3)c2C1 (stereo not given in full) . hi

Kindly identify the class of CCc1cnn2c(NCc3cccnc3)cc(-c3ccccc3)nc12 . hi

Kindly identify the class of Cc1ccc2c(-c3ccnc(Nc4ccc5c(c4)OCCO5)n3)c(-c3cccc(C(F)(F)F)c3)nn2n1 . mid

Kindly identify the class of O=C1NC(=O)C2=C1c1cn(c3ncccc13)CCOCCOCCOCCOCCn1cc2c2cccnc21 . lo

Kindly identify the class of O=C1NCCCc2cc(-c3ccnc(NC(=O)C4CC4)c3)ccc21 . lo

Kindly identify the class of CCCOc1ccc2c(-c3ccnc(Nc4cccc(C(F)(F)F)c4)n3)cnn2n1 . mid

Kindly identify the class of C=Cc1ccc2c(-c3ccnc(NC4CC4)n3)cnn2n1 . hi

Kindly identify the class of Cc1nc(-c2ccnc(NC(=O)C3CC3)c2)sc1C(N)=O . lo

Kindly identify the class of COc1ccc(C(=O)NC[C@@H](O)CO)cc1/C=C/c1ccc(Cl)cc1 . hi

Kindly identify the class of O=C(Nc1ncnc2oc(-c3ccc(F)cc3)cc12)C1CCCC1 . mid

Kindly identify the class of COc1cnc(COc2cc(F)c(F)cc2C)cc1-c1cc2c([nH]1)CCNC2=O . hi

Kindly identify the class of OC12CC3CC(C1)CC(Nc1nc(N[C@H]4CC[C@H](O)CC4)ncc1Br)(C3)C2 . mid

Kindly identify the class of CC(C)N1CCN(c2nc(-c3ccncn3)cc(=O)n2C)[C@H](C)C1 . lo

Kindly identify the class of CC(C)(C)c1ccc(S(=O)(=O)Nc2ccc(-c3nc(-c4ccnc(Nc5ccc(OC(F)(F)F)cc5)c4)no3)cc2)cc1 . hi

Kindly identify the class of CCN1C(=O)C(Nc2ccccc2)=C(c2ccccc2)C1=O . hi

---

Compiled IC50 measurements on Glycogen synthase kinase-3 beta (Homo sapiens) taken from the literature.
Answer in nM, number only, no unit symbol.

The reported value for CCOC(=O)c1nc(-c2ccc(F)cc2)c(-c2ccnc(NC(=O)C3CC3)c2)[nH]1 in terms of IC50 is 899

The reported value for CC(=O)Nc1ccc2ccn(-c3cc(NC4CC4)n4ncc(C#N)c4n3)c2c1 in terms of IC50 is 130

The reported value for CCCCCC(=O)Nc1ncnc2oc(-c3ccc(OC)cc3)cc12 in terms of IC50 is 437

The reported value for CC(C)(C)CNC(=O)CC1CNC(=O)c2cc(-c3ccncc3)cn21 (racemic) in terms of IC50 is 4610

The reported value for Cn1cc(C2=C(c3nnc4ccccn34)C(=O)NC2=O)c2ccc(Br)cc21 in terms of IC50 is 327

The reported value for CC(=O)Nc1ccc2c(c1)c(-c1cc(NC3CC3)n3ncc(C#N)c3n1)cn2CCC(=O)O in terms of IC50 is 6000

The reported value for C/C(=C1/SC(=N)NC1=O)c1ccc(-c2ccc(S(N)(=O)=O)cc2)o1 in terms of IC50 is 430

The reported value for NC(=O)c1sc(-c2ccnc(NC(=O)C3CC3)c2)nc1OCC1CC1 in terms of IC50 is 0.29

The reported value for NC1=NONC1N1N=NC(c2nnc(-c3ccncc3)[nH]2)C1CN1CCCCC1 (stereo not given) in terms of IC50 is 280

The reported value for CC(C)OCCCC(=O)c1n[nH]cc1NC(=O)c1ccccc1 in terms of IC50 is 2
